// provenance: the supplement of paper PMC3334620

Biological target: Stb5 (UniProt P38699)
Sequence: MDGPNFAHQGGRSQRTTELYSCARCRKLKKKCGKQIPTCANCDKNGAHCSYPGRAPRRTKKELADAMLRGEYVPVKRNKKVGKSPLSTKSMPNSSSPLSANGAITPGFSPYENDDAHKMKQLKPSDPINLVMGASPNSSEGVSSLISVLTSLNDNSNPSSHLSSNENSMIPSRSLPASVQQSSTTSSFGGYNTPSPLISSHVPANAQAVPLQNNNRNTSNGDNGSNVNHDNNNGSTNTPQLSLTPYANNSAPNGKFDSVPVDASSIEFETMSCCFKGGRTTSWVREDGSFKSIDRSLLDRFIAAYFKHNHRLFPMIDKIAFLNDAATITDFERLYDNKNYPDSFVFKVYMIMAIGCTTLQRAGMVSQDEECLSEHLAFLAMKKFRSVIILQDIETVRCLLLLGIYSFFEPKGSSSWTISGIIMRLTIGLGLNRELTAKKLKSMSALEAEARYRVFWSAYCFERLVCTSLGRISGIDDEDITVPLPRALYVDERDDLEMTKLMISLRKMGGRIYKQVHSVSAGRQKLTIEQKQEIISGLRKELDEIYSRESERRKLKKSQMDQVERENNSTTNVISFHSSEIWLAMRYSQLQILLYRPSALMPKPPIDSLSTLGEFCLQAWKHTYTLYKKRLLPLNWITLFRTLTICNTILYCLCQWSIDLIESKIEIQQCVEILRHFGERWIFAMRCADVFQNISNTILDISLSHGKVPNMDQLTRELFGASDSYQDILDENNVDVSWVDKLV
Assay: PBM E-score (8-mer binding enrichment) (E-score (-0.5 to 0.5)); higher = stronger / more preferred TF binding
Settings: protein concentration: 200 nM; construct: GST-full length
Over roughly 33,000 sequences, “E-score (-0.5 to 0.5)” has its median near -0.054; the highest 2% begin near 0.35. The sample holds the highest values, similar sequences and a random draw of the others, so the mix is not that of the screen.
Cut-off 0.3 on PBM E-score, inclusive. At or above means 1; below means -1.

[
  {
    "residue sequence": "ATTCCGGA",
    "discrete label": -1
  },
  {
    "residue sequence": "ACGGTACT",
    "discrete label": 1
  },
  {
    "residue sequence": "AGTCCGGA",
    "discrete label": 1
  },
  {
    "residue sequence": "AGTCCGGG",
    "discrete label": -1
  },
  {
    "residue sequence": "CGTCCGGC",
    "discrete label": -1
  },
  {
    "residue sequence": "GGTCCGGA",
    "discrete label": 1
  },
  {
    "residue sequence": "AGTCCGGC",
    "discrete label": 1
  },
  {
    "residue sequence": "CGTCCGCC",
    "discrete label": 1
  },
  {
    "residue sequence": "AGTCCGCG",
    "discrete label": 1
  },
  {
    "residue sequence": "GATCCGGA",
    "discrete label": -1
  },
  {
    "residue sequence": "ACGGTACC",
    "discrete label": -1
  }
]
